Entries and their hygroscopicity expressed in the uptake of water in the range of 10-90% relative humidity
# Protocol Details: Hygroscopicity (IGAsorp water sorption monitor)
# Type: physicochemical
# Experimental Parameters: room temperature
Outcome Measure: hygroscopicity expressed in the uptake of water in the range of 10-90% relative humidity

>>> reported("O=C1NS(=O)(=O)c2ccccc21.O=c1[nH]c2ccccc2n1CCN1CCN(c2cccc(C(F)(F)F)c2)CC1 [XI]")
"0.24%"
>>> reported("O=C(O)/C=C/C(=O)O.O=c1[nH]c2ccccc2n1CCN1CCN(c2cccc(C(F)(F)F)c2)CC1 [XXXI]")
"0.28%"
>>> reported("CCS(=O)(=O)O.O=c1[nH]c2ccccc2n1CCN1CCN(c2cccc(C(F)(F)F)c2)CC1 [XV]")
"0.32%"
>>> reported("O=C(O)CO.O=c1[nH]c2ccccc2n1CCN1CCN(c2cccc(C(F)(F)F)c2)CC1 [XXXIII]")
"0.20%"
>>> reported("CC1(C)C2CCC1(CS(=O)(=O)O)C(=O)C2.O=c1[nH]c2ccccc2n1CCN1CCN(c2cccc(C(F)(F)F)c2)CC1 [XXXII]")
"0.13%"
>>> reported("O=S(=O)(O)c1ccccc1.O=c1[nH]c2ccccc2n1CCN1CCN(c2cccc(C(F)(F)F)c2)CC1 [VIII]")
"0.15%"
>>> reported("O=C(O)C(=O)O.O=c1[nH]c2ccccc2n1CCN1CCN(c2cccc(C(F)(F)F)c2)CC1 [IX]")
"0.7%"
>>> reported("CS(=O)(=O)O.O=c1[nH]c2ccccc2n1CCN1CCN(c2cccc(C(F)(F)F)c2)CC1 [VII]")
"3.4%"
>>> reported("Cc1ccc(S(=O)(=O)O)cc1.O=c1[nH]c2ccccc2n1CCN1CCN(c2cccc(C(F)(F)F)c2)CC1 [XXX]")
"0.25%"
